Tested on: α-glucosidase
Test: Affinity ultrafiltration MTAUF-UPLC-MS/MS of DE with α-glucosidase
Format: binding, Saccharomyces cerevisiae
Conditions: peak area with active / inactivated enzyme; DE 5.0 mg·mL^−1
Description: Based on hypoglycemic inhibitory activities, potential inhibitors in the DE extract were screened using the MTAUF-UPLC-MS/MS method, as previously described. Firstly, α-amylase or α-glucosidase enzymes were inactivated by heating in boiling water for 20 min. Secondly, 100 µL of DE sample (5.0 mg·mL^−1 in PBS, pH = 6.8), 20 µL of either 2 U·mL^−1 active or inactivated enzyme, and 190 µL PBS were mixed, shaken well, and incubated at 37 °C for 60 min. […] This step was repeated 3 times. […]
RESULT_TYPE: relative binding affinity (RBA) toward α-glucosidase
Lab note: record the figure alone, no unit after it.

Record request: relative binding affinity (RBA) toward α-glucosidase value, item O=c1cc(-c2ccccc2)oc2cc(O)cc(O)c12 1.64

Give its relative binding affinity (RBA) toward α-glucosidase value. Item: COc1cc(/C=C/C(=O)O)ccc1O 1.35

Using the record for O=C1C[C@@H](c2ccccc2)Oc2cc(O)cc(O)c21 , report its relative binding affinity (RBA) toward α-glucosidase. 1.11

###

system: α-glucosidase; assay: Affinity ultrafiltration MTAUF-UPLC-MS/MS of DE with α-glucosidase; format: binding, Saccharomyces cerevisiae; settings: peak area with active / inactivated enzyme; DE 5.0 mg·mL^−1
Hi, to clarify the labels: Yes covers relative binding affinity (RBA) toward α-glucosidase from 2 upward, No covers anything below 2.

Hi, just wondering whether O=C(O)c1ccc(O)cc1 [Compound 3, 4-hydroxybenzoic acid] shows relative binding affinity (RBA) toward α-glucosidase of 2 or higher. Yes

Could you please find out whether C=C1CC[C@]2(C)CC[C@]3(C)[C@H](CC[C@@H]4[C@@]5(C)CC[C@H](O)C(C)(C)[C@@H]5CC[C@]43C)[C@H]2[C@@H]1C has relative binding affinity (RBA) toward α-glucosidase that meets 2 or exceeds it? No

Is relative binding affinity (RBA) toward α-glucosidase at least 2? Consider O=c1c(-c2ccc(O)cc2)coc2cc(O)cc(O)c12 No

Evaluate COc1cc(O)c2c(=O)cc(-c3ccc(O)cc3)oc2c1 : relative binding affinity (RBA) toward α-glucosidase at minimum 2? Yes

Reported relative binding affinity (RBA) toward α-glucosidase at or above 2? O=c1cc(-c2ccc(O)cc2)oc2cc(O)cc(O)c12 No

###

Target: α-amylase (Sus scrofa, UniProt P00690)
Construct: purchased Adamas-beta Reagents Co., Ltd. (Shanghai, China); host or cells: porcine pancreas
Sequence (P00690 16-511): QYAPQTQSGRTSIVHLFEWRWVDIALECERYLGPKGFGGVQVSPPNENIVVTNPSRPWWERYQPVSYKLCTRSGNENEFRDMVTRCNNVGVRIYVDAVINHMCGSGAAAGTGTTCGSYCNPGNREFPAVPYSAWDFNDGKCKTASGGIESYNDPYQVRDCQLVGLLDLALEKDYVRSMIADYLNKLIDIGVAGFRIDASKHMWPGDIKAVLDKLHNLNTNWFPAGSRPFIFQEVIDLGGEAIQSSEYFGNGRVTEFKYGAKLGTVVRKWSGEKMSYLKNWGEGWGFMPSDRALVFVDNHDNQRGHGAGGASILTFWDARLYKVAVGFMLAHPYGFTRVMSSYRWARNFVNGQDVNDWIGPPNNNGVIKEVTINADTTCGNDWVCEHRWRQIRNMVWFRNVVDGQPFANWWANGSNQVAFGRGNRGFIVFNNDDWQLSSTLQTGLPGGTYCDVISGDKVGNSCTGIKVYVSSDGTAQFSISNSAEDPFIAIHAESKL
Experiment: Affinity ultrafiltration MTAUF-UPLC-MS/MS of DE with α-amylase
Type: binding, porcine
Settings: peak area with active / inactivated enzyme; DE 5.0 mg·mL^−1
Please go through the items and note down their relative binding affinity (RBA) toward α-amylase.
Respond with the number and no other words.

Can you share its relative binding affinity (RBA) toward α-amylase? I mean this molecule: O=C1C[C@@H](c2ccccc2)Oc2cc(O)cc(O)c21 1.53

Give its relative binding affinity (RBA) toward α-amylase value. Item: O=c1cc(-c2ccccc2)oc2cc(O)cc(O)c12 1.66

Given the molecule O=c1cc(-c2ccc(O)cc2)oc2cc(O)cc(O)c12 , what is its reported relative binding affinity (RBA) toward α-amylase? 1.48

Param item = O=C(/C=C/c1ccc(O)c(O)c1)O[C@H]1[C@H](O)C[C@](O)(C(=O)O)C[C@H]1OC(=O)/C=C/c1ccc(O)c(O)c1 ; retrieve measured relative binding affinity (RBA) toward α-amylase. 1.71
